- Target System: HLA-A*32:01
- Test: IEDB peptide-MHC binding, purified MHC/competitive/radioactivity; filed as Kd, often an IC50 or EC50 that approximates it; bounds were set here for any values at or beyond the usual limits of such assays
- Measurement Conditions: source organism: Mammarenavirus whitewaterense
Measurement Name: Kd

So the reported Kd for `YVNHTGFNV` , on HLA-A*32:01, turned out to be ≥ 77.8 µM

====

- Target System: HLA-A*02:03
- Test: IEDB peptide-MHC binding, purified MHC/direct/fluorescence; filed as Kd, often an IC50 or EC50 that approximates it; bounds were set here for any values at or beyond the usual limits of such assays
- Measurement Conditions: source organism: Orthohantavirus andesense
pKd: −log10 of the molar value.
Would you kindly list pKd for each of these sequences?

VSANVKGNW | ≤ 4.70

Then there is this sequence:
So the reported pKd for `NALEKALRW` , on HLA-A*02:03, turned out to be ≤ 4.70

This collection of values is drawn from the Immune Epitope Database (IEDB).
